Provenance of the data: PubChem BioAssay (NCI)

Consider the following molecules and their measured GI50 readings.
- Test system: SN12C renal
- testProtocol: NCI tumour cell line growth inhibition, 48 h

| molecule | GI50 |
| --- | --- |
| O=c1cccc(C#CC#CC2=CCCCC2)o1 | 0.516 µM |
| O=c1c2ccccc2c(=O)c2c1[nH]c1c(-c3ccccc3)c(-c3ccccc3)c(=O)c12 | 3.57 µM |
| CN(C)C(=O)[C@H](O)[C@H](Cc1ccccc1)NC(=O)c1cc2cc(Cl)ccc2[nH]1 | 23.5 µM |
| Nc1nc(F)nc2c1ncn2C1OC(CO)C(O)C1O (stereo not given) | 5.55 µM |
| CCCCON(OC(=O)c1ccc2ccc3cccc4ccc1c2c34)C(C)=O | 19.6 µM |
| O=S(=O)(Nc1cc(Sc2cccc3cccnc23)c(O)c2ccccc12)c1ccccc1 | 0.798 µM |
| CC/C=C\C[C@H]1C/C=C2/C(=O)C=C[C@@H]2C/C=C\CCCC(=O)O1 | 0.986 µM |
| O=C(/C=C\c1ccc(NCc2ccc(C(=O)O)cc2)cc1)CCl | 11.2 µM |
| Nc1ccc(-c2nc3ccc(Cc4ccc5nc(-c6ccc(N)cc6)[nH]c5c4)cc3[nH]2)cc1 | 8.75 µM |
| Cc1ccc(-c2nc3ccc(Cl)cc3c(=O)n2N2C(=O)CSC2c2ccccc2Cl)cc1 (stereo not given) | 11.8 µM |
